Collected set of pIC50 measured with O-acyltransferase (Oryctolagus cuniculus, UniProt G1SFD9) across studies.
Schema: pIC50 number; meaning minus log10 of the concentration expressed in molar units.

Lookup result for CCCCCCCN(CC1(c2ccccc2)CCCC1)C(=O)Nc1ccc(F)cc1F ; measured pIC50: 6.51

The compound listed as CCCCn1nnc(NC(=O)Nc2c(C(C)C)cccc2C(C)C)n1 has a reported pIC50 of 7.04

Please fill in: pIC50 reported for CCCCCCCN(CC(c1ccccc1)c1ccccc1)C(=O)Nc1ccc(F)cc1F = 6.77

# compound CCCCCCCCCCCCCCS(=O)(=O)N(Cc1ccccc1)C(=O)Nc1c(C(C)C)cccc1C(C)C ; its pIC50 = 6.29

Entry CCCCCCCCCCCCC(C)(C)C(=O)Nc1c(OC)ncnc1OC ; pIC50 = 5.89

Note to self: pIC50 recorded for CC(C)c1cccc(C(C)C)c1NC(=O)NC1CCc2ccccc2C1 (stereo not drawn) was 7.39

What the record says about CCCCC/C=C\C/C=C\CCCCCCCC(=O)Nc1c(OC)cc(OC)cc1OC : pIC50 is 7.38

Value of measured pIC50 for the entry CC(C)c1cccc(C(C)C)c1NC(=O)Nc1nnn(CCCCCCCCCCOC2CCCCO2)n1 (stereo not drawn) : 7.92

Just so you know, measured pIC50 for CCCCCCCCCCn1nnc(NC(=O)Nc2c(C(C)C)cccc2C(C)C)n1 came out at 7.85

Please fill in: pIC50 reported for CCCCCCCCCCCCS(=O)(=O)N(C)C(=O)Nc1c(C(C)C)cccc1C(C)C = 7.07

# pIC50 of CCCCCCCCCCCn1cnc(NC(=O)Nc2c(C(C)C)cccc2C(C)C)n1 = 6.96

The compound listed as CC(C)c1cccc(C(C)C)c1NC(=O)NOCc1cccc2ccccc12 has a reported pIC50 of 7.04

The compound identified as Cc1ccc(C)c(OCCCC(C)(C)C(=O)Nc2cccc(-c3ncco3)c2)c1 registered its pIC50 at 4.64

// recorded pIC50 for CCCCCCCCCCCCCCn1nnc(CS(=O)(=O)Nc2c(C(C)C)cccc2C(C)C)n1 : 6.82

Note to self: pIC50 recorded for CCCCCCCCCCCCCCn1nnc(NC(=O)Nc2c(C(C)C)cccc2C(C)C)n1 was 7.92
